assayed_target: HuTCR Vb7/9 × Va10.2 (SKW3-3) (human)
assay_notes: flow cytometry on SKW3-3 cells (no Vβ17)
// label = 1 if MFI is not less than 500 MFI, otherwise -1

Lookup: Is the recorded value of MFI equal to or greater than 500 MFI for this binder? 28D2E6 (antibody, IgG1, V domains shown) VH: EVQLQESGPGLVKPSQSLSLTCSVTGYFISSGYYWKWIRQFPGNKLEWMGYISYDGSNNYNPSLKNRISITRDTSKNQFFLKLNSVTAEDTATYYCARGGGYVPVWGTGTTVTVSS VL: DIQMTQSPLSLPVSLGDQASISCRSSQSIVRSNGNTYLEWYLQKPGQSPKLLIYKVSNRFSGVPDRFSGSGSGTDFTLKISRVEAEDLGVYYCFQSSHVPRTFGGGTKLEIK
Found: -1

Lookup: Is the recorded value of MFI equal to or greater than 500 MFI for this binder? 28B2F5 (antibody, IgG2a, V domains shown) VH: EVQLQESGPELVKPGASVKMSCKASGYTFTDDNMHWVKQSHGKSLEWIGYINPNNNHTNYNQKFKGKATLTVNKSSSTAYMELRSLTSEDSAVYFCARSTVVPFYAMDYWGQGTSVTVSS VL: DIKMTQSPASLSMAIGEKVTIRCITITDIDDDMNWYQQKPGEPPKLLFSEGNTLRPGVPSRFSSSGYGSDFAFTIENMLSEDVADYYCLQSDNLPLTFGAGTKLELK
Found: -1

Lookup: Is the recorded value of MFI equal to or greater than 500 MFI for this binder? 28D2E8 (antibody, IgG1, V domains shown) VH: EVQLQESGPGLVKPSQSLSLTCSVTGYFISSGYYWKWIRQFPGNKLEWMGYISYDGSNNYNPSLKNRISITRDTSKNQFFLKLNSVTAEDTATYYCARGGGYVPVWGTGTTVTVSS VL: DIKMTQSPLSLPVSLGDQASISCRSSQSIVRSNGNTYLEWYLQKPGQSPKLLIYKVSNRFSGVPDRFSGSGSGTDFTLKISRVEAEDLGVYYCFQSSHVPRTFGGGTKLEIK
Found: -1

Lookup: Is the recorded value of MFI equal to or greater than 500 MFI for this binder? 21G11A8 (antibody, V domains shown) VH: EVQLQESGPDLKKPGETVKISCKASGYTFTTYGMNWVKQAPGKGLKWMGYLNTYSGVSTYADDFKGRFAFSLETSANTAYLQINNLRNDDTATYFCARWGNYGAMDYWGQGTSVTVSS VL: DIKMTQSPLSLPVSLGDQASISCRSSQSIVRSNGFTYLEWYLQKPGQSPELLIYKVSNRFSGVPDRFSGSGSGTDFTLKISRVEAEDLGVYYCFQSSHVPRTFGGGTKLEIK
Found: 1

src = patent US20250092134A1
